# Tested on: MDA-MB-435
# Method Notes: NCI tumour cell line growth inhibition, 48 h
Reported Property: TGI

Consider the worked cases shown below.
INSERT INTO measurements (input_smiles, measured_on, readout_value) VALUES
  ('CC1(C)N=C(/C(C#N)=[N+](/[O-])C(=O)c2ccccc2)C(C)(C)N1O', 'MDA-MB-435', '> 100 µM'),
  ('CSc1ccc(C(=O)/C=C/c2ccc(F)cc2)cc1', 'MDA-MB-435', '78.3 µM');

Next compound, please.
State the recorded TGI for this entry: CCCCCCCCCCCCCCCCCCNC(=S)/N=C/c1c(O)cc(C)oc1=O
55.6 µM
